Tested on: T-cell
Assay: IL-2 secretion from T-cells stimulated with anti-CD3 antibody alone (Biological Example 2)
Format: cell-based
Conditions: 1 μM compound, primary human total T-cells, read-out: IL-2 secretion, Anti-CD3 stimulation, fold change over baseline
Record form. Attribute: fold induction at 1 µM. Fill in for each entry.

molecule | fold induction at 1 µM
Cn1cnnc1C[C@H](c1cccc(N2Cc3c(cccc3C(F)(F)F)C2=O)c1)C(F)(F)F [Compound 471a] | 0.051 to 0.1
CC(O)c1cc2c(c(C(F)(F)F)c1)CN(c1cccc([C@H](C)Cc3nncn3C)c1)C2=O (stereo partly shown) | 0.151 to 0.2
Cc1c[nH]nc1C[C@@H](C)c1cccc(N2Cc3c(cc(C(=O)N4C[C@@H](O)C[C@H]4C)cc3C(F)(F)F)C2=O)c1 | 0.151 to 0.2
Cn1cnnc1CC(C)(C)c1cccc(N2Cc3c(cc(C4CC4)cc3C(F)(F)F)C2=O)c1 | 0.101 to 0.15
C[C@@H](c1cccc(N2Cc3c(cccc3C(F)(F)F)C2=O)c1)C(F)c1nncn1C (stereo in doubt) | 0.051 to 0.1
Cn1cnnc1C(F)(F)[C@](C)(F)c1cccc(N2Cc3c(cc(CN4CC(C#N)C4)cc3C(F)(F)F)C2=O)c1 | 0.051 to 0.1

Consider the additional molecule presented here.
Query string: Fill in fold induction at 1 µM for record C[C@@H](c1cccc(N2Cc3c(cccc3C(F)(F)F)C2=O)c1)[C@H](F)c1nncn1C (racemic)
Result string: 0.051 to 0.1
